measurementNotes: Transport across the BBB, in vitro bovine cell assay (co-culture, transwell)
reportedConditions: bovine, pH 7.4
Positions of bridges follow the written chain, without caps; N, C: chain ends. Non-standard residues stand in square brackets, D forms with d. Residues, ends and D or L forms follow the SMILES beside them. Dopa = N[C@@H](Cc1ccc(O)c(O)c1)C(=O)O; Dap = NC[C@H](N)C(=O)O
Provide the reported Papp at 2 h of each item.
// return numeric value only (unit: nm/s, not printed)

Consider the molecule CC(C)C[C@@H]1NC(=O)[C@H](C)NC(=O)[C@H]([C@@H](C)O)NC(=O)[C@H](CCC(=O)O)NC(=O)[C@@H]2CCCN2C(=O)[C@H](C)NC(=O)[C@H](CCCCN)NC(=O)[C@@H]2CSSC[C@@H](C(=O)N[C@@H](Cc3c[nH]cn3)C(N)=O)NC(=O)[C@H](C)NC(=O)[C@H](C)NC(=O)[C@H](C)NC(=O)[C@H](CSSC[C@H](NC(=O)[C@@H](N)Cc3ccc(O)c(O)c3)C(=O)N[C@@H](CC(N)=O)C(=O)N2)NC1=O [Example 16] (H-[Dopa]CNCKAPETALCAAACH-NH2; disulfide 2-12, 4-16) and give its measured Papp at 2 h.
26

Can you look up the measured Papp at 2 h of CC(C)C[C@@H]1NC(=O)[C@H](C)NC(=O)[C@H]([C@@H](C)O)NC(=O)[C@H](CCC(=O)O)NC(=O)[C@@H]2CCCN2C(=O)[C@H](C)NC(=O)[C@H](CCCCN)NC(=O)[C@@H](N)CNC(=O)C[C@@H](C(N)=O)NC1=O [Example 3] (H-[Dap]KAPETALD-NH2; lactam 1-9) for me?
51

Which Papp at 2 h value belongs to CC(C)C[C@@H]1NC(=O)[C@H](C)NC(=O)[C@H]([C@@H](C)O)NC(=O)[C@H](CCC(=O)O)NC(=O)[C@@H]2CCCN2C(=O)[C@H](C)NC(=O)[C@H](CCCCN)NC(=O)[C@@H]2CSSC[C@@H](C(=O)N[C@@H](Cc3c[nH]cn3)C(N)=O)NC(=O)[C@H](C)NC(=O)[C@H](C)NC(=O)[C@H](C)NC(=O)[C@H](CSSC[C@H](N)C(=O)N[C@@H](CC(N)=O)C(=O)N2)NC1=O [Example 1] (H-CNCKAPETALCAAACH-NH2; disulfide 1-11, 3-15) ?
27

What value of measured Papp at 2 h is listed for CC(C)C[C@@H]1NC(=O)[C@H](C)NC(=O)[C@H]([C@@H](C)O)NC(=O)[C@H](CCC(=O)O)NC(=O)[C@@H]2CCCN2C(=O)[C@H](C)NC(=O)[C@H](CCCCN)NC(=O)[C@@H](NC(=O)[C@@H](N)Cc2ccc(O)c(O)c2)CSSC[C@@H](C(N)=O)NC1=O [Example 17] (H-[Dopa]CKAPETALC-NH2; disulfide 2-10) ?
24

* * *

measurementNotes: Evidences of active transport in the bovine cell model (NaN3 inhibition, saturation, 4 °C, abluminal-luminal)
Format: in vitro ADME
reportedConditions: bovine; 200 µM, 37 °C, 2 h, abluminal compartment as donor
Positions of bridges follow the written chain, without caps; N, C: chain ends. Residues, ends and D or L forms follow the SMILES beside them.
assayReadout: Papp B→A at 2 h, 200 µM (×10⁻⁶ cm/s)
Give the quantity in ×10⁻⁶ cm/s, number only.

Consider the molecule CC(C)C[C@@H]1NC(=O)[C@H](C)NC(=O)[C@H]([C@@H](C)O)NC(=O)[C@H](CCC(=O)O)NC(=O)[C@@H]2CCCN2C(=O)[C@H](C)NC(=O)[C@H](CCCCN)NC(=O)[C@@H]2CSSC[C@@H](C(=O)N[C@@H](Cc3c[nH]cn3)C(N)=O)NC(=O)[C@H](C)NC(=O)[C@H](C)NC(=O)[C@H](C)NC(=O)[C@H](CSSC[C@H](N)C(=O)N[C@@H](CC(N)=O)C(=O)N2)NC1=O [Example 1] (H-CNCKAPETALCAAACH-NH2; disulfide 1-11, 3-15) and give its measured Papp B→A at 2 h, 200 µM.
1.06
